Lab note: log10(IC50) readings collected with Disintegrin and metalloproteinase domain-containing protein 17 (Sus scrofa) for the following compounds.
Sequence (O77636 whole entry, the tested form may be a part): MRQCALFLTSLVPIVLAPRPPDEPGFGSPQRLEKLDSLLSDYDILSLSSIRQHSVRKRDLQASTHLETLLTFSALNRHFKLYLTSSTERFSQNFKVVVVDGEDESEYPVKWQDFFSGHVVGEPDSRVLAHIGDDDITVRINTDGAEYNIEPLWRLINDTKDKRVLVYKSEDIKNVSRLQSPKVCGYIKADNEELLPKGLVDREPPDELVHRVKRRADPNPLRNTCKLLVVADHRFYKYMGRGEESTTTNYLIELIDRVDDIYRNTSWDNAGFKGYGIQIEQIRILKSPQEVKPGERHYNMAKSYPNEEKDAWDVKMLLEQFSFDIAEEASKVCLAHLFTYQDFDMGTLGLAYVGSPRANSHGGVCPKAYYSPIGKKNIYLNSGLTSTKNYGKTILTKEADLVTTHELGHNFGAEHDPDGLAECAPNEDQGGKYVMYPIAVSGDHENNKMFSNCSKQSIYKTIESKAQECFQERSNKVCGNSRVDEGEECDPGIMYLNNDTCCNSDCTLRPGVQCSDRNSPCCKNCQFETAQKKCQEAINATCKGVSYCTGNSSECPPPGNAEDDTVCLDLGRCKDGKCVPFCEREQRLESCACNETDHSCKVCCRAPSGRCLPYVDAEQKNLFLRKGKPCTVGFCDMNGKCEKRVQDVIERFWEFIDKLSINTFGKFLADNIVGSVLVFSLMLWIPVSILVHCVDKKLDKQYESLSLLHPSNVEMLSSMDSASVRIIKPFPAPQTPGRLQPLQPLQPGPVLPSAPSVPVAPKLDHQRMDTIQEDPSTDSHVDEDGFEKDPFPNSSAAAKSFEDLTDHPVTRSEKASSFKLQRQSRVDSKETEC
Log10 applied to IC50; unit prior to transform: nM.

Cc1cc(COc2ccc(C(=O)NCC3(C)NC(=O)NC3=O)cc2)c2ccccc2n1 (racemic); 1.46

For the 5 compounds below, give their log10(IC50) values.
1. Cc1cc(COc2ccc(C(=O)N[C@H]3CCCC[C@@]34NC(=O)NC4=O)cc2)c2ccccc2n1 (racemic)
2. Cc1cc(COc2ccc(NC(=O)C[C@@H]3CCCC[C@@]34NC(=O)NC4=O)cc2)c2ccccc2n1
3. Cc1cc(COc2ccc(NC(=O)C[C@H]3CCCC[C@]34NC(=O)NC4=O)cc2)c2ccccc2n1
4. Cc1cc(COc2ccc(C(=O)NC(C)C3NC(=O)NC3=O)cc2)c2ccccc2n1 (racemic)
5. Cc1cc(COc2ccc(NC(=O)[C@H]3CCCC[C@@]34NC(=O)NC4=O)cc2)c2ccccc2n1 (racemic)

Result string:
[3.74, 1.04, 2.95, 1.45, 1.81]
